Sourced from paper PMC11081522

Recorded IC50 by entry
Tested system: CLK2 (Cdc2-like kinase 2) (Homo sapiens, UniProt P49760)
Construct: commercial enzyme of Thermo Fisher SelectScreen service
Sequence (P49760 whole entry): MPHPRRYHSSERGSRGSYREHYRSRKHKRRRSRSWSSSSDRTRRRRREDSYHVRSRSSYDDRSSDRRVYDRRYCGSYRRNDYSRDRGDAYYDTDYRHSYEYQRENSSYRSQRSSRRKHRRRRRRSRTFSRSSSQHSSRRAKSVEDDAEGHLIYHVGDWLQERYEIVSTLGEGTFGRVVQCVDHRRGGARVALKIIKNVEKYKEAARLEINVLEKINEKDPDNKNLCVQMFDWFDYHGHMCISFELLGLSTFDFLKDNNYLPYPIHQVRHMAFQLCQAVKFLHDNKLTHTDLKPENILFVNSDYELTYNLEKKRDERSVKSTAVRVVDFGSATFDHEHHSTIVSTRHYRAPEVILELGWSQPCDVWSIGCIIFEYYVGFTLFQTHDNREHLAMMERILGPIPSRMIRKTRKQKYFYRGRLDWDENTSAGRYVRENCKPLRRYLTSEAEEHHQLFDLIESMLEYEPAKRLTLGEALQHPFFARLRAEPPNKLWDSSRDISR
Assay explanation: Z'LYTE FRET peptide kinase assay
Type: biochemical

Compound	IC50 [nM]
Nc1ncnc2oc(-c3ccccc3)c(-c3ccccc3)c12	2240
CC(c1ccccc1)n1c2ccccc2c2c(N)ncnc21 (centres unmarked)	620

* * *

Tested system: CLK2 (Cdc2-like kinase 2) (Homo sapiens, UniProt P49760)
Construct: commercial enzyme of Thermo Fisher SelectScreen service
Assay explanation: Z'LYTE FRET peptide kinase assay
Assay type: biochemical
Experimental setup: ATP and peptide substrate; 1% DMSO; room temperature, 60 min
Recorded endpoint: IC50 (nM)

Molecule	Endpoint value
CSc1nc(Cl)cc(Sc2nc(N)nc3nc[nH]c23)n1 [compound 51564, 51564]	1330
